# target.or.system: Vhr1 (UniProt P40522)
# Sequence: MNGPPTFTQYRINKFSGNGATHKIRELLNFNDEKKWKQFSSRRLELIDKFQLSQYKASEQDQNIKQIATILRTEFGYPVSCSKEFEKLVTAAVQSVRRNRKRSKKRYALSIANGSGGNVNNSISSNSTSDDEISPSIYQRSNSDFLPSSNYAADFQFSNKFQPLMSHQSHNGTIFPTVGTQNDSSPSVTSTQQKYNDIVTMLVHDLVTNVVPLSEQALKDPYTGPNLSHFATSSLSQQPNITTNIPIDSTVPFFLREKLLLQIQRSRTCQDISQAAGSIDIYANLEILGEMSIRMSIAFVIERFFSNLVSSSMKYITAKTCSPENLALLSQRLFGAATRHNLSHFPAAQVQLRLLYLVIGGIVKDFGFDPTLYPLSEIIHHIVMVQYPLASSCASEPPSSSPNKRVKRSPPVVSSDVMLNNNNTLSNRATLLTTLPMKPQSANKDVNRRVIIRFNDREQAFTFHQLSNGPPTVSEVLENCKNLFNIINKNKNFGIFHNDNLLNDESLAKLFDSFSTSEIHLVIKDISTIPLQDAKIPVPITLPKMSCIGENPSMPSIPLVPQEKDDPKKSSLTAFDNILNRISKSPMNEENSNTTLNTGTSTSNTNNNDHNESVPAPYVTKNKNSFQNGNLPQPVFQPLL
# measurement.notes: PBM E-score (8-mer binding enrichment) (E-score (-0.5 to 0.5)); higher = stronger / more preferred TF binding
# conditions: protein concentration: 200 nM; construct: GST-full length
Over roughly 33,000 sequences, “E-score (-0.5 to 0.5)” has its median near -0.012; the highest 2% begin near 0.27. This is one part of a sample in which the highest values are shown more often than they occur.
measure.name: PBM E-score

• GTTCATTA = -0.0167
• CTAATATA = -0.0362
• ACCTGACT = 0.374
• GCATTGAA = -0.0212
• CGCTGTTA = -0.0856
• ATGAGTTC = 0.00071
• ATGATATC = 0.0491
• CGATGAAA = -0.0595
• CGCCTATA = -0.135
• ACCCGATG = 0.137
• ACAGCCTA = 0.0389
• AATTGTGG = 0.00128
• ACAGTTAA = 0.0518
• GGCGCGAC = 0.275
• ACCTGACC = 0.11
• ATAATATG = 0.206
• TCTTTCCA = -0.157
• GGCTATGA = 0.0249
• CGCGCGAC = 0.162
• GCTATATA = 0.0669
• ATCTGTTA = -0.0428
• CATCCATC = 0.0866
• ATAATACG = 0.0457
• ATGAGTCC = 0.389
• GGTGAGGA = 0.00616
• CTGATACA = 0.0817
• GATGAGTA = 0.382
• CGAGATTA = 0.0687
• ATACCCAC = 0.176
• AGCTGACG = -0.12
• AGTATATG = 0.239
• AGCTGACC = 0.116
• CCAATGGG = -0.103
• AGAGGTAT = 0.144
• GACGTTAC = -0.062
• GCCTTGAC = -0.167
• CACTAGAC = 0.0875
• GCTGAGTA = 0.0378
• ATGATACC = 0.124
• GTCGCGAC = 0.379
• CGCACGCC = 0.167
• ATAGCGTA = -0.0276
• ACTATATA = 0.274
• CTCGCGAC = 0.242
• ACTGTTGG = 0.034
• ATGATATG = 0.315

* * *

# target.or.system: Vhr1 (UniProt P40522)
# Sequence: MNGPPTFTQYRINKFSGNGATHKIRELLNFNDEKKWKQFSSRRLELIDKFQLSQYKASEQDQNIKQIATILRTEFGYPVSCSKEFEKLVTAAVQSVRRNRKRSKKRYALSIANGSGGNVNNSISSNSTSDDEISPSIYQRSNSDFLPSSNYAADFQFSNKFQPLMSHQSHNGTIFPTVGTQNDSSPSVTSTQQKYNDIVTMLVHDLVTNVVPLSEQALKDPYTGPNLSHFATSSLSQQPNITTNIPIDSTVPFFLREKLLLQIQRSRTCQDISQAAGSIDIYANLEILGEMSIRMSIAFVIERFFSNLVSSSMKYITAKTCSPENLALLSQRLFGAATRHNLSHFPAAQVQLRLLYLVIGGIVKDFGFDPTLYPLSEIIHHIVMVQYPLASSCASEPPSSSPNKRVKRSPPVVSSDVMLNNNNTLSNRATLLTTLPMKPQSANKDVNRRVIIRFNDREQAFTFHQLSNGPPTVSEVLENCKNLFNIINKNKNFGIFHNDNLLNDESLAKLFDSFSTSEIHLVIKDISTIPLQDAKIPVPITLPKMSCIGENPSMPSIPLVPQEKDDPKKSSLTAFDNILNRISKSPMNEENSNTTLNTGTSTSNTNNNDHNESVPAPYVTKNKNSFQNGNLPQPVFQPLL
# measurement.notes: PBM E-score (8-mer binding enrichment) (E-score (-0.5 to 0.5)); higher = stronger / more preferred TF binding
# conditions: protein concentration: 200 nM; construct: GST-full length
The full ranking holds about 33,000 sequences; the median of “E-score (-0.5 to 0.5)” is about -0.012, and the highest 2% start at about 0.27. The sample holds the highest values, similar sequences and a random draw of the others, so the mix is not that of the screen.
In this section, each of the sequences is paired with its reported PBM E-score.
measure.name: PBM E-score

* AGGGCCAA | -0.299
* CACCCACC | 0.317
* GCTAGCCA | -0.17
* GTCCAGCA | -0.0682
* CAGGGTCA | 0.00801
* AAGAGTCC | -0.149
* GCTCCTCA | -0.363
* ACAGGCGC | -0.173
* TAGAGTGA | -0.0169
* ACTCTTTC | -0.172
* CCTCTCGA | -0.142
* GAGAGTCA | 0.43
* CAACAACA | 0.234
* ATAGGCAA | -0.246
* GCCCCACC | 0.265
* CAATTTTC | -0.0832
* CCGATCAC | 0.0847
* CAAGACTA | -0.0514
* TTCCTCAA | -0.19
* AACCCACT | 0.246
* CAAGACTC | 0.295
* GCAGAACA | 0.091
* GCAGCAAC | 0.126
* ATTCAATA | -0.0197
* CTAGGTTC | -0.0959
* AAGAGTGG | -0.0723
* CAAATCAA | 0.0775
* AGGTATGA | 0.163
* TAGAGTAA | -0.082
* CACCCACA | 0.241
* ACTCGGAT | 0.186
* TAGAGTCA | 0.355
* CCTCGGAG | 0.00615
* AAAATAAT | 0.0747
* AAGAGTCT | 0.00073
* AATGATGC | 0.0924
* CCCTTCTA | -0.218
* AGCTGTAC | 0.016
* ACGTGATG | 0.00697
* AACCAGAC | -0.00075
* CAAGACTG | -0.0294
* CAGCAGCG | -0.0154
* AGGCCCGG | -0.234
* CATACTAG | 0.238
* AGGAACCT | -0.0548
* GCCCCTCA | -0.0991

* * *

# target.or.system: Vhr1 (UniProt P40522)
# Sequence: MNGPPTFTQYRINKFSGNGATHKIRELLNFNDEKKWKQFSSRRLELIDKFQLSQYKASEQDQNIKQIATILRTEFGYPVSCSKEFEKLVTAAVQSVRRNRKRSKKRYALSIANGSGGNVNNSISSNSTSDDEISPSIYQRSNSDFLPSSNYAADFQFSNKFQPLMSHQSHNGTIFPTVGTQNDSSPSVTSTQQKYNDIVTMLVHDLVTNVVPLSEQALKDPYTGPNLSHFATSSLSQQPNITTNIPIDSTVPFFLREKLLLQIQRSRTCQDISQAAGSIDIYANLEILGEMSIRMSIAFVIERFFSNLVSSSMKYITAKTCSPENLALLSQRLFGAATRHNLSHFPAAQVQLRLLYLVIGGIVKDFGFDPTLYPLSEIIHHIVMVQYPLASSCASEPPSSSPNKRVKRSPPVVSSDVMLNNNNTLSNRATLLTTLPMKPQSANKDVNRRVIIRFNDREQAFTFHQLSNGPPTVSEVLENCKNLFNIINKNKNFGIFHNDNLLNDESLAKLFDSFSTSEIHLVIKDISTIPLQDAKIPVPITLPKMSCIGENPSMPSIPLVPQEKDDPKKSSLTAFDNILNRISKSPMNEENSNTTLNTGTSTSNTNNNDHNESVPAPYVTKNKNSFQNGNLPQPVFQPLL
# measurement.notes: PBM E-score (8-mer binding enrichment) (E-score (-0.5 to 0.5)); higher = stronger / more preferred TF binding
# conditions: protein concentration: 200 nM; construct: GST-full length
Over roughly 33,000 sequences, “E-score (-0.5 to 0.5)” has its median near -0.012; the highest 2% begin near 0.27. The sample as a whole holds a higher share of the highest values than the screen did.
PBM E-score overview
measure.name: PBM E-score

• CGCACACA = 0.134
• AGATGGGG = -0.00259
• TAATGGCA = -0.00432
• CACACACG = 0.272
• AACACACT = 0.205
• CCCACCCC = 0.389
• AACACACA = 0.33
• TACACACA = 0.268
• CACACAAA = 0.124
• CACACACA = 0.276
• CACACATA = 0.204
